molecular target: 2-C-methyl-D-erythritol 2,4-cyclodiphosphate synthase (Mycobacterium tuberculosis (strain ATCC 25618 / H37Rv), UniProt P9WKG5); experiment: Inhibition of Mycobacterium tuberculosis H37Rv IspF expressed in Escherichia coli XL1-Blue measured for 30 mins by photometric plate reader analysis
Sequence (P9WKG5 whole entry): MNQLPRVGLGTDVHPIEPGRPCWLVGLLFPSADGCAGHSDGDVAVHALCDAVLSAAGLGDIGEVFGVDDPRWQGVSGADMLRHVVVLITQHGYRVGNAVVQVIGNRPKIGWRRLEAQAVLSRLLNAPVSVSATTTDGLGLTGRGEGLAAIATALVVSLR
assay metric: pIC50
Give bare numbers, as −log10 of the molar value.

Challenge: Which value of pIC50 has been reported for CCOC(=O)C1=C(C)N=c2s/c(=C\c3cc(Br)c(O)c(Br)c3)c(=O)n2C1c1cccs1 (stereo unspecified) in the records?
Response given: 5.21
